B1: LINE1-full (parent)
chain: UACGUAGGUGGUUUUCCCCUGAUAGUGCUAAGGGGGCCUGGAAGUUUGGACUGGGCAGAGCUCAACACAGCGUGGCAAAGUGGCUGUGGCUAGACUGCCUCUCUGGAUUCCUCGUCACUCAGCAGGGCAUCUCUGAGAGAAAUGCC

Variants of: B1
Assay: self-cleavage, relative activity (ratio to wild type); higher = more cleavage; in vitro, sequencing; the parent is a self-cleaving ribozyme
Respond with yes for self-cleavage values of 0.2 and above, no for values below.

Form field: self-cleavage at least 0.2? Entry: G32A C84U
yes

Form field: self-cleavage at least 0.2? Entry: G32C
yes

Form field: self-cleavage at least 0.2? Entry: U96C G114A
no

Form field: self-cleavage at least 0.2? Entry: A59G C133A
no

Form field: self-cleavage at least 0.2? Entry: U15G U46C
yes
